# Experiment: PK of compound of Formula (Ia) after single subcutaneous dose of solution formulations in Wistar Han rats
# Type: in vivo
# Settings: male, Wistar Han, rat, plasma, sc, 50 mg/kg, 672 h; mean, n = 3 rats; SC 50 mg/kg; solution S, 500 mg/mL
Value Kind: concentration at 672 h (nM)

>>> assay_value("CC(C)(C#Cc1ccc(-c2ccc(Cl)c3c(NS(C)(=O)=O)nn(CC(F)(F)F)c23)c([C@H](Cc2cc(F)cc(F)c2)NC(=O)Cn2nc(C(F)(F)F)c3c2C(F)(F)[C@@H]2C[C@H]32)n1)S(C)(=O)=O [compound of Formula (Ia)]")
296

###

# Experiment: PK of compound of Formula (Ia) after single subcutaneous dose of solution formulations in Wistar Han rats
# Format: in vivo
# Settings: male, Wistar Han, rat, plasma, sc, 50 mg/kg, Wistar Han rats, SC 50 mg/kg, 400 mg/mL solution W (5.00% ethanol, 1.57% poloxamer 188), 672 h, Mean n = 3
Value Kind: concentration at 672 h (µM)

>>> assay_value("CC(C)(C#Cc1ccc(-c2ccc(Cl)c3c(NS(C)(=O)=O)nn(CC(F)(F)F)c23)c([C@H](Cc2cc(F)cc(F)c2)NC(=O)Cn2nc(C(F)(F)F)c3c2C(F)(F)[C@@H]2C[C@H]32)n1)S(C)(=O)=O [compound of Formula (Ia)]")
0.261

###

# Experiment: PK of compound of Formula (Ia) after single subcutaneous dose of solution formulations in Wistar Han rats
# Type: in vivo
# Settings: male, Wistar Han, rat, plasma, sc, 50 mg/kg, Wistar Han rats, SC 50 mg/kg, 500 mg/mL solution X (5.00% ethanol, 1.91% poloxamer 188), 72.0 h, Mean n = 3
# Protocol: Formulations containing the compound of Formula (Ia), or a pharmaceutically acceptable salt thereof, were prepared as solutions and optionally administered subcutaneously or intramuscularly to rats, rabbits, and/or dogs. A solution of about 400 mg/mL of the compound of Formula (Ia) having 19.14 w/w % water, 40.66 w/w % PEG 300, 35.20 w/w % of a sodium salt of a compound of Formula (Ia), and 5.00% ethanol was prepared. […]
Value Kind: concentration at 72 h (nM)

>>> assay_value("CC(C)(C#Cc1ccc(-c2ccc(Cl)c3c(NS(C)(=O)=O)nn(CC(F)(F)F)c23)c([C@H](Cc2cc(F)cc(F)c2)NC(=O)Cn2nc(C(F)(F)F)c3c2C(F)(F)[C@@H]2C[C@H]32)n1)S(C)(=O)=O")
199

###

# Experiment: PK of compound of Formula (Ia) after single subcutaneous dose of solution formulations in Wistar Han rats
# Type: in vivo
# Settings: male, Wistar Han, rat, plasma, sc, 50 mg/kg, Wistar Han rats, SC 50 mg/kg, 500 mg/mL solution X (5.00% ethanol, 1.91% poloxamer 188), 4704 h, Mean n = 3
Value Kind: concentration at 4704 h (nM)

>>> assay_value("CC(C)(C#Cc1ccc(-c2ccc(Cl)c3c(NS(C)(=O)=O)nn(CC(F)(F)F)c23)c([C@H](Cc2cc(F)cc(F)c2)NC(=O)Cn2nc(C(F)(F)F)c3c2C(F)(F)[C@@H]2C[C@H]32)n1)S(C)(=O)=O")
88.8
